System: PC12/HttN90Q103 cells
method: CellTiter-Blue assay, rescue of HttN90Q103-induced cell death
Assay type: cell-based, rat
test-parameters: Rattus norvegicus, PC-12; CellTiter-Blue; single agent; sigmoidal fit of 12-step dose response; read-out: EC50
Structures can show the parent of a compound that is named as a salt.
reported-metric: EC50 (µM)
Numbers only, in µM.

Some molecules with recorded EC50:
| molecule | EC50 (µM) |
| --- | --- |
| C[N+](C)(C)CCOC(N)=O [Carbachol] | 6.8 |
| CO[C@@H]1[C@@H](OC(N)=O)[C@@H](O)[C@H](Oc2ccc3c(O)c(NC(=O)c4ccc(O)c(CC=C(C)C)c4)c(=O)oc3c2C)OC1(C)C [Novobiocin] | 3 |
| O=c1cc(-c2ccccc2)oc2cc(O)cc(O)c12 [Chrysin] | 1.1 |
| c1ccc2c(c1)[I+]c1ccccc1-2 [Diphenyleneiodonium] | 0.1 |
| Oc1ccc(Cl)cc1Cc1ccccc1 [Clorophene] | 0.9 |

Quick one: give me EC50 for each item below, same order please.
1. Cc1c(C)c2c(c(C)c1O)CCC(C)(COc1ccc(CC3SC(=O)NC3=O)cc1)O2 (stereo not drawn) [Troglitazone]
2. CC(=O)c1ccc(S(=O)(=O)NC(=O)NC2CCCCC2)cc1 [Acetohexamide]
3. C[C@]12CC[C@H](O)CC1=CC[C@@H]1[C@@H]2CC[C@]2(C)C(=O)CC[C@@H]12 [Dehydroepiandrosterone]
4. Cc1ccc(C(=O)Cn2c3c(sc2=N)CCCC3)cc1 [Pifithrin α, hydrobromide]

17.8
3.9
11
6

Ref: patent US20080044390A1
